# Test system: Plasmodium falciparum
# EXPERIMENTAL PROTOCOL: In vitro antimalarial activity against chloroquine-resistant Plasmodium falciparum W2 Indochina
# Assay type: functional, organism-based
RECORDED ENDPOINT: pIC50
Just so you know, pIC50 here is -log10 of the concentration in molar units; reply with that number alone.

Sample records with pIC50:
INSERT INTO assay_data (compound, measurement_target, value) VALUES
  ('C[C@@H]1CC[C@H]2[C@@H](CCCc3ccc(O)cc3)C(=O)O[C@@H]3O[C@@]4(C)CC[C@@H]1[C@]32OO4', 'Plasmodium falciparum', 8.33),
  ('C[C@@H]1CC[C@H]2[C@H](CCCc3cc(C(F)(F)F)cc(C(F)(F)F)c3)C(=O)O[C@@H]3O[C@@]4(C)CC[C@@H]1[C@]32OO4', 'Plasmodium falciparum', 8.09),
  ('OC(c1cc(C(F)(F)F)nc2c(C(F)(F)F)cccc12)C1CCCCN1 (stereo not drawn)', 'Plasmodium falciparum', 6.71),
  ('C[C@@H]1CC[C@H]2[C@@H](CCC#N)C(=O)O[C@@H]3O[C@@]4(C)CCC1[C@]32OO4 (stereo partly drawn)', 'Plasmodium falciparum', 7.83),
  ('C[C@@H]1CC[C@H]2[C@@H](CCCc3ccccc3)C(=O)O[C@@H]3O[C@@]4(C)CCC1[C@]32OO4 (stereo partly drawn)', 'Plasmodium falciparum', 8.89),
  ('C[C@@H]1CC[C@H]2[C@H](CCCc3ccccc3)C(=O)O[C@@H]3O[C@@]4(C)CCC1[C@]32OO4 (stereo partly drawn)', 'Plasmodium falciparum', 8.47),
  ('CSc1ccc(CCC[C@H]2C(=O)O[C@@H]3O[C@@]4(C)CCC5[C@H](C)CC[C@@H]2[C@]53OO4)cc1 (stereo partly drawn)', 'Plasmodium falciparum', 7.29);

Now consider the entry below.
Could you please provide reported pIC50 for C[C@@H]1CC[C@H]2[C@@H](CCCc3ccc(S(C)(=O)=O)cc3)C(=O)O[C@@H]3O[C@@]4(C)CCC1[C@]32OO4 (stereo partly drawn) ? Thanks! 7.70

###

# System: Plasmodium falciparum
# EXPERIMENTAL PROTOCOL: In vitro antimalarial activity against chloroquine-resistant Plasmodium falciparum W2 Indochina
# Type: functional, organism-based
RECORDED ENDPOINT: pIC50
Entry type: numeric. Quantity: pIC50, the -log10 of concentration in molar units.

INSERT INTO measurements (compound, recorded_endpoint, value) VALUES
  ('C[C@@H]1CC[C@H]2[C@@H](CCCc3ccc(N(C)C)cc3)CO[C@@H]3O[C@@]4(C)CC[C@@H]1[C@]32OO4', 'pIC50', 7.84),
  ('C[C@@H]1CC[C@H]2[C@@H](CCCc3cc(C(F)(F)F)cc(C(F)(F)F)c3)C(=O)O[C@@H]3O[C@@]4(C)CC[C@@H]1[C@]32OO4', 'pIC50', 7.80);

As a next step, examine the compound that follows.
Would you please give the reported pIC50 of C[C@@H]1CC[C@H]2[C@@H](CCCc3ccc(N(C)C)cc3)C(=O)O[C@@H]3O[C@@]4(C)CCC1[C@]32OO4 (stereo partly drawn) with Plasmodium falciparum? 7.95
